# credit: patent US6569878B1

Molecular target: complex of human CDK4 and cyclin D3 (Homo sapiens, UniProt P11802)
Construct: made in house; host or cells: insect cells, co-infected with baculovirus
Sequence (P11802 whole entry): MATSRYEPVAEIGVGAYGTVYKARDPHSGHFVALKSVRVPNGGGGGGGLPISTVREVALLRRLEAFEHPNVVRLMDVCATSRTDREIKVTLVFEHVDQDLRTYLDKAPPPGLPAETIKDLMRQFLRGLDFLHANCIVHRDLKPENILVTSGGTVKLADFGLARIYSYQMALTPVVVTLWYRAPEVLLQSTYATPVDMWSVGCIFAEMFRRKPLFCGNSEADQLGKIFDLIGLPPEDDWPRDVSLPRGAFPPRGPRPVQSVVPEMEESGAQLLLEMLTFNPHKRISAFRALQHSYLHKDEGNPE
Sequence (P30281 whole entry partner): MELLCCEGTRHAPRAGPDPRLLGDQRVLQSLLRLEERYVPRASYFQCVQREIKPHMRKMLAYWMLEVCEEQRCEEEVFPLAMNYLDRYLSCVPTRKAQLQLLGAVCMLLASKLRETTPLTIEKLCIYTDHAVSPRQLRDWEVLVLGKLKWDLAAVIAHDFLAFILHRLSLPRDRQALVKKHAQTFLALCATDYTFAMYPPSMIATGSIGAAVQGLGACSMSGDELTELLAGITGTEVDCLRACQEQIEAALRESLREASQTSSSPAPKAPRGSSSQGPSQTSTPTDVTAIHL
Test: Inhibition of CDK4/cyclin D retinoblastoma kinase activity (D-type cyclin is D3)
Format: biochemical
Conditions: superscript a: D-type cyclin is D3; apparent Ki; read-out: Ki CDK 4/D
pKi: −log10 of the molar value.
The label depends only on pKi: label 1 if it is at least 7, label 0 if it is smaller.

Solved cases (4 shown):
>  <smiles_string>
Cc1cc([N+](=O)[O-])sc1C(=O)c1sc(Nc2ccc3nc[nH]c3c2)nc1N

>  <group_label>
label 1

$$$$
>  <smiles_string>
Nc1nc(Nc2ccc(C(=O)O)cc2)sc1C(=O)c1c(Cl)cccc1Cl

>  <group_label>
label 0

$$$$
>  <smiles_string>
Cc1c(C(=O)c2sc(Nc3ccc4nc[nH]c4c3)nc2N)sc2ccccc12

>  <group_label>
label 1

$$$$
>  <smiles_string>
Cc1cccc(-c2ccccc2)c1C(=O)c1sc(Nc2ccc(N3CCOCC3)cc2)nc1N

>  <group_label>
label 0

$$$$

Kindly consider the entry below.
q: pKi >= 7 for `Nc1nc(Nc2cccnc2)sc1C(=O)c1ccc(Cl)cc1Cl` ?
a: label 0

----------
Molecular target: CDK2/cyclin A (Homo sapiens, UniProt P24941)
Construct: made in house; host or cells: CDK2: insect cells (baculovirus); cyclin A: E. coli, then limited proteolysis
Test: Inhibition of CDK2/cyclin A retinoblastoma kinase activity
Format: biochemical
Details: read-out: Ki CDK 2/A
pKi: −log10 of the molar value. Structures can show the parent of a compound that is named as a salt.
Response field class: enum, chosen by comparing pKi against class A: < 6; class B: ≥ 6 and < 7; class C: ≥ 7

Solved cases (3 shown):
>  <compound>
Nc1nc(Nc2ccc(N3CCNCC3)cc2)sc1C(=O)c1c(F)cc(F)cc1F

>  <group_label>
class B

$$$$
>  <compound>
CCOC(=O)CC(C)Nc1nc(N)c(C(=O)c2sccc2C)s1 (racemic)

>  <group_label>
class A

$$$$
>  <compound>
Cc1ccsc1C(=O)c1sc(Nc2ccc(S(N)(=O)=O)cc2)nc1N

>  <group_label>
class C

$$$$

q: Sort `Cc1cccc(C)c1C(=O)c1sc(Nc2ccc3nc[nH]c3c2)nc1N` into one of the categories.
a: class B

q: Sort Cc1ccsc1C(=O)c1sc(Nc2ccc(N3CCNCC3)cc2)nc1N [H(1), Trihydrochloride] into one of the categories.
a: class B

q: Sort `CC(=O)N1CCN(c2ccc(Nc3nc(N)c(C(=O)c4sccc4C)s3)cc2)CC1` into one of the categories.
a: class B

q: Sort `CN(C)S(=O)(=O)c1ccc(Nc2nc(N)c(C(=O)c3c(F)cccc3F)s2)cc1` into one of the categories.
a: class C

q: Sort `Nc1nc(Nc2cccnc2)sc1C(=O)c1ccccc1` into one of the categories.
a: class A

q: Sort `Nc1nc(Nc2ccc(C(=O)O)cc2)sc1C(=O)c1c(Cl)cccc1Cl` into one of the categories.
a: class B

----------
Target: CDK2/cyclin A (Homo sapiens, UniProt P24941)
Construct: made in house; host or cells: CDK2: insect cells (baculovirus); cyclin A: E. coli, then limited proteolysis
Assay: Inhibition of CDK2/cyclin A retinoblastoma kinase activity
Type: biochemical
Conditions: read-out: Ki CDK 2/A
Lab note - cut at 400 nM for Ki: label 1 if strictly below, label 0 if not.

>  <smiles_string>
Nc1nc(Nc2ccc(N3CCNCC3)cc2)sc1C(=O)c1c(F)cccc1F

>  <group_label>
label 1

$$$$
>  <smiles_string>
Nc1nc(Nc2ccc(N3CCNCC3)cc2)sc1C(=O)c1c(Cl)cc(Cl)cc1Cl

>  <group_label>
label 0

$$$$
>  <smiles_string>
Cc1ccsc1C(=O)c1sc(Nc2ccc(N(C)CCN(C)C)cc2)nc1N

>  <group_label>
label 0

$$$$
>  <smiles_string>
CN(CC(=O)OC(C)(C)C)c1ccc(Nc2nc(N)c(C(=O)c3c(F)cccc3F)s2)cc1

>  <group_label>
label 0

$$$$
>  <smiles_string>
Nc1nc(Nc2ccc(C(=O)O)cc2)sc1C(=O)c1ccccc1[N+](=O)[O-]

>  <group_label>
label 1

$$$$
>  <smiles_string>
Nc1nc(Nc2ccc(S(N)(=O)=O)cc2)sc1C(=O)c1c(Cl)cc(C(F)(F)F)cc1Cl

>  <group_label>
label 1

$$$$
>  <smiles_string>
Nc1nc(Nc2ccc(S(N)(=O)=O)cc2)sc1C(=O)c1c(F)cccc1C(F)(F)F

>  <group_label>
label 1

$$$$
>  <smiles_string>
COc1ccc(C(=O)c2sc(Nc3ccc(N(C)C)cc3)nc2N)cc1

>  <group_label>
label 0

$$$$
>  <smiles_string>
COc1ccc(Nc2nc(N)c(C(=O)c3ccccc3C#N)s2)cc1

>  <group_label>
label 1

$$$$
>  <smiles_string>
CC(=O)Nc1ccc(Cl)c(C(=O)c2sc(Nc3ccc(N4CCN(C)CC4)cc3)nc2N)c1Cl

>  <group_label>
label 0

$$$$

Kindly consider the entry below.
q: Is 400 nM strictly greater than the molecule's reported Ki? molecule: `Cc1cccc([N+](=O)[O-])c1C(=O)c1sc(Nc2ccc3nc[nH]c3c2)nc1N`
a: label 0
